Recorded values, source patent US9073855B2.

Please respond with reported Ki for every item in the list.
Biological target: UniProt:P10415
Sequence (P10415 whole entry): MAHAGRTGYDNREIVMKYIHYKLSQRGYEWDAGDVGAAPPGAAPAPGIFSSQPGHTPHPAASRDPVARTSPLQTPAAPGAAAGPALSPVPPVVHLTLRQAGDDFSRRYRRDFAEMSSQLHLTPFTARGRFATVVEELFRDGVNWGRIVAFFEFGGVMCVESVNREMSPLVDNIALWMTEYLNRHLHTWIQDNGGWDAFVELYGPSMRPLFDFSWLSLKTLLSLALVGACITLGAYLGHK
Assay: TR-FRET binding assay, GST-Bcl-2 with F-Bak peptide probe
Details: TR-FRET Binding Affinity, GST-Bcl-2, F-Bak peptide probe
Give just the numeric value; nM need not be written.

What value of measured Ki is listed for CN(C)CCOc1ccc(-c2ccc(Cl)cc2)c(CN2CCN(c3ccc(C(=O)NS(=O)(=O)c4ccc(NCCCN5CCCC5)c([N+](=O)[O-])c4)c(Oc4ccccc4)c3)CC2)c1 ?
0.001

Same read-out for CC1(C)CCC(CN2CCN(c3ccc(C(=O)NS(=O)(=O)c4ccc(NC5CCS(=O)(=O)C5)c([N+](=O)[O-])c4)c(Oc4ccc5[nH]ccc5c4)c3)CC2)=C(c2ccc(Cl)cc2)C1 (stereo not drawn) ?
0.144

Same read-out for O=C(NS(=O)(=O)c1ccc(NCC2CCOCC2)c([N+](=O)[O-])c1)c1ccc(N2CCN(Cc3ccccc3-c3ccc(Cl)cc3)CC2)cc1Oc1ccc2c(c1)CCN2 ?
4.73

====

Target: UniProt P10415
Test: TR-FRET binding assay, GST-Bcl-2 with F-Bak peptide probe
Conditions: TR-FRET Binding Affinity
Experimental: Tb-anti-GST antibody was purchased from Invitrogen (Catalog No. PV4216). […] The samples were then mixed on a shaker for 1 minute and incubated for an additional 3 hours at room temperature. […] Fluorescence was measured on the ENVISION plate reader (Perkin Elmer) using a 340/35 nm excitation filter and 520/525 (F-Bak peptide) and 495/510 nm (Tb-labeled […] antibody) emission filters. […]
measured.property: Ki

What value of measured Ki is listed for CC1(C)CCC(CN2CCN(c3cc(Oc4cccc5[nH]ncc45)c(C(=O)NS(=O)(=O)c4cnc(OCC5(F)CCOCC5)c(Cl)c4)cc3Cl)CC2)=C(c2ccc(Cl)cc2)C1 [Example 510] ?
0.674 nM

Same read-out for CC1(C)CCC(CN2CCN(c3ccc(C(=O)NS(=O)(=O)c4ccc(OCC5COCCO5)c([N+](=O)[O-])c4)c(Oc4cccc5[nH]ncc45)c3)CC2)=C(c2ccc(Cl)cc2)C1 (stereo not shown) [Example 447] ?
0.028 nM

Same read-out for O=C(NS(=O)(=O)c1ccc(NCC2CCOCC2)c([N+](=O)[O-])c1)c1ccc(N2CCN(CC3=C(c4ccc(Cl)cc4)CCC(F)(F)C3)CC2)cc1Oc1cccc2[nH]ncc12 [Example 524] ?
< 0.01 nM

Same read-out for CO[C@H]1CC[C@H](CNc2ccc(S(=O)(=O)NC(=O)c3ccc(N4CCN(CC5=C(c6ccc(Cl)cc6)CC(C)(C)CC5)CC4)cc3Oc3cccc4[nH]ncc34)cc2[N+](=O)[O-])CC1 [Example 446] ?
0.038 nM

Same read-out for CC1(C)CCC(CN2CCN(c3ccc(C(=O)NS(=O)(=O)c4ccc(NC[C@H]5CC[C@@](C)(O)CC5)c([N+](=O)[O-])c4)c(Oc4cccc5[nH]ncc45)c3)CC2)=C(c2ccc(Cl)cc2)C1 [Example 526] ?
< 0.01 nM

Same read-out for CC1(C)CCC(CN2CCN(c3ccc(C(=O)NS(=O)(=O)c4cnc(OCC5CCC(C)(O)CC5)c(C#N)c4)c(Oc4cccc5[nH]ncc45)c3)CC2)=C(c2ccc(Cl)cc2)C1 (stereo not shown) [Example 544] ?
< 0.01 nM

Same read-out for CC1(C)CCC(CN2CCN(c3ccc(C(=O)NS(=O)(=O)c4cnc(OCC5(F)CCOCC5)c(Cl)c4)c(Oc4cccc5[nH]nnc45)c3)CC2)=C(c2ccc(Cl)cc2)C1 [Example 515] ?
< 0.01 nM

Same read-out for CC1(C)CCC(CN2CCN(c3ccc(C(=O)NS(=O)(=O)c4cnc(OCC5COCCO5)c(Cl)c4)c(Oc4cccc5[nH]ncc45)c3)CC2)=C(c2ccc(Cl)cc2)C1 (stereo not shown) [Example 488] ?
< 0.01 nM

Same read-out for CC1(C)CCC(CN2CCN(c3ccc(C(=O)NS(=O)(=O)c4ccc(NC[C@H]5CC[C@](C)(O)CC5)c([N+](=O)[O-])c4)c(Oc4cccc5[nH]ncc45)c3)CC2)=C(c2ccc(Cl)cc2)C1 [Example 525] ?
< 0.01 nM

Same read-out for CC1(C)CCC(CN2CCN(c3ccc(C(=O)NS(=O)(=O)c4cnc(OCC5CCC(C)(O)CC5)c(Cl)c4)c(Oc4cccc5[nH]ncc45)c3)CC2)=C(c2ccc(Cl)cc2)C1 (stereo not shown) [Example 494] ?
< 0.01 nM
